polymerase ribozyme fitness (log ratio) values for the variants below.
B1: TPR t1 (parent)
chain: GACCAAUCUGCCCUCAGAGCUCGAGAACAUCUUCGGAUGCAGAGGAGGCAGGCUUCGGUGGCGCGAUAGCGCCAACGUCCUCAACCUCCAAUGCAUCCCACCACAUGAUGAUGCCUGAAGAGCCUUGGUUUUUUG

Variants of: B1
ASSAY INFO: polymerase ribozyme fitness, log enrichment relative to wild type (log ratio); higher = more active; in vitro selection for triplet polymerase activity
Reply with just the number.

Some variants with recorded polymerase ribozyme fitness (log ratio):
> print(dat)
   variant.designation  assay.value
1      C56G U87A C115U        -1.94
2           C70G G117C        -5.07

q: What value of polymerase ribozyme fitness (log ratio) has been recorded for this entry: A2U G47A C72A A121G
a: -0.127

q: How about this variant: C8A U21A A84U
a: -0.224

q: Also, G42C G61A A121C U133G please.
a: 0.579

q: How about G51C C72A U129G ?
a: -4.58

q: Query C8U G61U A84C G120U next
a: 1.93

q: Same again, this time with C79G C94A
a: -2.62

q: Moving on to the next variant: A29U G48C
a: -2.86

q: Now try C22G A29U G69C C89A G110U .
a: -5.19

q: Now consider C49A G117A and answer again.
a: -1.89

q: Also check C13G G45A G48A G61C
a: -3.73

q: Now consider G44C A74U .
a: -1.2

q: Now the same for C4G G44U U96A A100U
a: -3.73

q: Then what about the variant C56U C89A U92C G117U ?
a: -5.23

q: Also, G48A C72A U116C please.
a: -1.09

q: # repeat for A37U A50C G63U C79A C80G G107U G117C
a: -6.62
